- measured on: Jack bean urease (Canavalia ensiformis)
- Sequence (P07374 whole entry, looked up): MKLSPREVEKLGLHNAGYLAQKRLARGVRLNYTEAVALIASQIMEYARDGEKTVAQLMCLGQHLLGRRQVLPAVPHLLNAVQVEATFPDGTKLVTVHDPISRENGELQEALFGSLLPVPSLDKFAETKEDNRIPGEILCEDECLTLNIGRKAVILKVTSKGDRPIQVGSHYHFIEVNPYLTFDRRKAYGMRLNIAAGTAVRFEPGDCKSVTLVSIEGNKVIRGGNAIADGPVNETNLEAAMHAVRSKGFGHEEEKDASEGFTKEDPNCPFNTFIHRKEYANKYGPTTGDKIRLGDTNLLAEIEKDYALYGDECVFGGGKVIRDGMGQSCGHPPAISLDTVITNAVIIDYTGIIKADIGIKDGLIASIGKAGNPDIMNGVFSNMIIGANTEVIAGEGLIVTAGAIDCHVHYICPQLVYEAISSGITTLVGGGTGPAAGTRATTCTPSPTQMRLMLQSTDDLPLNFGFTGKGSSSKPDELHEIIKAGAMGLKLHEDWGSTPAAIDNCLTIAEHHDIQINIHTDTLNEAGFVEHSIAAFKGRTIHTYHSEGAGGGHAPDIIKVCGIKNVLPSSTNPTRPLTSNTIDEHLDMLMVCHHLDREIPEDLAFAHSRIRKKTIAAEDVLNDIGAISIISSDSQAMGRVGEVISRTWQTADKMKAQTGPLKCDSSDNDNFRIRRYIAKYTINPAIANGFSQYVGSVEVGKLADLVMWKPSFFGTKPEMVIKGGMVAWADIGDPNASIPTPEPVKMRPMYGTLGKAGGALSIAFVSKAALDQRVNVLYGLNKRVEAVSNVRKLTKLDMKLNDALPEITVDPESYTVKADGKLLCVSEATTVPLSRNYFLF
- protocol text: Urease inhibition assay
- Assay type: biochemical
- run conditions: read-out: IC50 (urease inhibitory activity), 37 °C, 30 minutes, read at 625 nm, triplicate
measured parameter: pIC50
// returns pIC50 (minus log10 of molar concentration), number only

Q: Query: pIC50; subject: NC(=O)NO [hydroxyurea, reference compound]
Ans: 4.00
